Each recorded value in this set is attributed to patent US20190142905A1.

- Assay system: T1, mouse GLP-1 receptor endogenously expressed in βTC6 cells (mouse, UniProt O35659 22-463)
- T1 sequence (looked up): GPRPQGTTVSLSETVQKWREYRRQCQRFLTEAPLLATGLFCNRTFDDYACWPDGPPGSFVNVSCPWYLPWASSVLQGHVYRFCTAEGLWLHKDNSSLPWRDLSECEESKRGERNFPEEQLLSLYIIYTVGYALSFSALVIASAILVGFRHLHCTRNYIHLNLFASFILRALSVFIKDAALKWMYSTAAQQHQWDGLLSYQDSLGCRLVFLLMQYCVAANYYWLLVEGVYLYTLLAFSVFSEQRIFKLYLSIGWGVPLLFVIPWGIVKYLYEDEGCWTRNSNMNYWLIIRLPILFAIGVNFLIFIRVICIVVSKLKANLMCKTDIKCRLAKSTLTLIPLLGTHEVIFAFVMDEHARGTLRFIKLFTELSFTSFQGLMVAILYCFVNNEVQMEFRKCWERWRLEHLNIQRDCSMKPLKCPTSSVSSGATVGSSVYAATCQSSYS
- Experimental protocol: cell-based or functional assay
Square brackets hold non-standard residues; d marks the D form. Ends that are not written are not given here. A^u = urea residue with alanine side chain
We label by threshold. Values of EC50, GLP-1 Functional Assay (cAMP production, HTRF) strictly beneath 0.3 nM are true (1). Values of 0.3 nM and up are false (0).

In [3]: df
Out[3]:
                                     binder  label_value
0  HAEGTFTSDVSSYLEGQAAKEFIAWLVKGRX (G^u at position 31 (urea residue with glycine side chain)) [Compound 27]     true (1)
1  HAEGTFTSDVSSYLEGQXAKEFIAWLVKGRG (A^u at position 18 (urea residue with alanine side chain)) [Compound 45]     true (1)
2  HAEGTFTSDVSSYLEGQAAKEFIAWLVKXRG (G^u at position 29 (urea residue with glycine side chain)) [Compound 25]     true (1)
3  XAEGTFTSDVSSYLEGQAAKEFIAWLVKGRG (H^u at position 1 (urea residue with histidine side chain)) [Compound 12]    false (0)
4  HAEGTFTSDVSSYLEGQAAKEFIAWLXKGRG (A^u at position 27 (urea residue with alanine side chain)) [Compound 7]     true (1)

QUERY: Determine if HAEGTFTSDVSSYLEGQAAKEFIAXLVKGRG (W^u at position 25 (urea residue with tryptophan side chain)) [Compound 4] shows EC50, GLP-1 Functional Assay (cAMP production, HTRF) strictly lower than 0.3 nM.
RESULT: true (1)

QUERY: Dear colleague, could you confirm whether EC50, GLP-1 Functional Assay (cAMP production, HTRF) of HAEGTFTSDVSSYLEGQAAKEFIAWXVKGRG (A^u at position 26 (urea residue with alanine side chain)) [Compound 5] falls below 0.3 nM? Thanks.
RESULT: false (0)

QUERY: # strict comparison: is reported EC50, GLP-1 Functional Assay (cAMP production, HTRF) < 0.3 nM? input = HAEGTFTSDVSSYLEGQAAKEFIXWLVKGRG (A^u at position 24 (urea residue with alanine side chain)) [Compound 2]
RESULT: false (0)

QUERY: Please let me know if HAEGTFTSDVSSYXEGQAAKEFIAWLVKGRG (Y^u at position 14 (urea residue with tyrosine side chain)) [Compound 44] shows EC50, GLP-1 Functional Assay (cAMP production, HTRF) below 0.3 nM.
RESULT: true (1)

QUERY: Dear reviewer, please state whether H[A^u]EGTFTSDL[A^u]KQLEEEAVRLFIEWLKNGGPSSGAPPSKKKKKK [Compound 73] has EC50, GLP-1 Functional Assay (cAMP production, HTRF) strictly beneath 0.3 nM.
RESULT: false (0)

QUERY: Strictly below 0.3 nM in EC50, GLP-1 Functional Assay (cAMP production, HTRF)? HAEGTFTSDVSSYLEGQAAKEFIAXLVKGRG (A^u at position 25 (urea residue with alanine side chain)) [Compound 3]
RESULT: false (0)
